Values from PubChem BioAssay AID504467

test-details: qHTS screen for small molecules that inhibit ELG1-dependent DNA repair in human embryonic kidney (HEK293T) cells expressing luciferase-tagged ELG1; further: nearly all actives have a fitted effect of over 55% in size
run-parameters: HEK293T ELG1-luciferase reporter, luminescence, 16 h, DNA damage induced by 5-fluorouridine; series mostly up to 46.1 µM
Description: NIH Molecular Libraries Probe Production Network [MLPCN] NIH Chemical Genomics Center [NCGC] MLPCN Grant: 1 R03 MH092164-01 Assay Provider: Kyungjae Myung, NHGRI, NIH Keywords: MLPCN, qHTS, NCGC, genotoxicity, cancer Assay Overview: Cancer cells divide rapidly compared to normal cells in the body. During cell division, cancer cells need to duplicate their genome by DNA replication. […] With this in mind, we developed a quantitative high-throughput ELG1-luciferase reporter gene assay. […]
In all, about 330,000 compounds went through this assay and about 7,700 (2.3%) were called active. Another 26% or so got no clear call; they are omitted. The call rests on the fitted dose curve; in most records, active means well fitted inhibition curve with a large enough effect; inconclusive means small, poorly fitted or top-dose-only effect, or effect the other way; inactive means flat fitted curve, though single readings scatter. The entries come from a sample that favours actives as a whole.
Classes used: active, inactive

[
  {
    "compound": "Cc1ccc2c(c1)c1ncn(Cc3ccc(F)cc3)c(=O)c1n2C",
    "group": "inactive"
  },
  {
    "compound": "CC(=O)c1ccc(S(=O)(=O)N(C)CCCC(=O)N(C)Cc2ccccc2F)cc1",
    "group": "inactive"
  },
  {
    "compound": "CCN(CC)C(=O)c1sc(NC(=O)c2ccco2)c(C#N)c1C",
    "group": "inactive"
  },
  {
    "compound": "CC(C)=CCCC(C)CN1CCC(n2nccc2NC(=O)c2ccccc2)CC1 (configuration not stated)",
    "group": "inactive"
  },
  {
    "compound": "Cc1cc2oc(=O)cc(CN3CCN(Cc4ccccc4)CC3)c2cc1C",
    "group": "inactive"
  },
  {
    "compound": "CCn1nc(C)c(CNC(=O)C2CCC(=O)N(Cc3cccc(F)c3)C2)c1C (configuration not stated)",
    "group": "inactive"
  },
  {
    "compound": "O=c1oc(-c2ccccc2NS(=O)(=O)c2ccc(Cl)cc2)nc2ccccc12",
    "group": "active"
  },
  {
    "compound": "CC(C)(C)c1ccc(SCCc2ccncc2)cc1",
    "group": "inactive"
  },
  {
    "compound": "COc1ccc(C2=NN(C(=O)CSc3nc(=O)n4ccc(C)cc4n3)C(c3ccc(C)cc3)C2)cc1 (configuration not stated)",
    "group": "inactive"
  },
  {
    "compound": "c1ccc(-n2nnnc2NC2CCCCCC2)cc1",
    "group": "inactive"
  },
  {
    "compound": "CCc1ccccc1NC(=O)CN(C)C(=O)c1cc(C2CC2)nn1-c1ccccc1",
    "group": "inactive"
  },
  {
    "compound": "CCc1ccc(NC(=O)CSc2nc3ccccc3c(=O)n2CCN2CCOCC2)cc1",
    "group": "active"
  },
  {
    "compound": "CCCc1ccc(-c2c(C)sc(NC(=O)c3ccnn3C)c2C#N)cc1",
    "group": "active"
  },
  {
    "compound": "O=c1oc2ccccc2c(NC2CCCCC2)c1NS(=O)(=O)c1ccc(Cl)cc1",
    "group": "inactive"
  },
  {
    "compound": "CC(C)(C)n1ncc2c(=O)n(Cc3ccc(Cl)cc3)cnc21",
    "group": "active"
  },
  {
    "compound": "CCc1ccc(Nc2n[n+](-c3ccccc3)c(-c3cccc(Cl)c3Cl)s2)cc1",
    "group": "inactive"
  },
  {
    "compound": "CC(C)(C)n1ncc2c(=O)n(Cc3c(Cl)cccc3Br)cnc21",
    "group": "inactive"
  },
  {
    "compound": "Cc1cc2oc(=O)cc(CN3CCN(S(=O)(=O)c4cccs4)CC3)c2cc1C(C)C",
    "group": "active"
  },
  {
    "compound": "CC1(c2ccccc2)NC(=O)N(CC(=O)N2CC(=O)Nc3ccccc32)C1=O (configuration not stated)",
    "group": "inactive"
  },
  {
    "compound": "CCCCN(CCCC)CCCNC(=O)CN1C(=O)COc2ccc(S(=O)(=O)N3CCC(C)CC3)cc21",
    "group": "inactive"
  },
  {
    "compound": "O=c1ccc2cc(S(=O)(=O)Nc3ccccc3F)ccc2o1",
    "group": "inactive"
  },
  {
    "compound": "FC(F)(F)c1nc2ccccc2nc1N/N=C/c1ccc(Cl)cc1",
    "group": "inactive"
  }
]
